// values below are reported IC50
# MEASUREMENT_TARGET: ATM (Homo sapiens)
# Construct: detecting phosphorylation of Chk2 in a human non-small cell lung cancer cell line NCI-H460 (ATCC company); host or cells: NCI-H460 human non-small cell lung cancer cells
# EXPERIMENTAL_DETAILS: ATM inhibition test (phosphorylation of Chk2 generated by ionizing radiation, AlphaScreen SureFire)
# Type: cell-based
# TEST_CONDITIONS: phosphorylated Chk2 in NCI-H460 cells, ionizing radiation 8Gy, 1 hour after test compound treatment; read-out: ATM inhibitory activity

Field: example entries. Status: answers known.
MOLECULE	IC50
C=C(C)c1cncc(CNc2ccc3c(c2)Cc2cccc(-c4cc(N5CCOCC5)cc(=O)[nH]4)c2O3)c1	< 100 nM
CC(Nc1ccc2c(c1)Sc1cccc(-c3cc(N4CCOCC4)cc(=O)[nH]3)c1S2)c1ccncn1 (stereo not drawn)	100 to 500 nM
O=c1cc(N2CCOCC2)cc(-c2nccc3c2Oc2ccc(NCc4cc(Cl)ccn4)cc2C3)[nH]1	< 100 nM
CC(CN1CCN(C)CC1)Nc1ccc2c(c1)Sc1cccc(-c3cc(N4CCOCC4)cc(=O)[nH]3)c1S2 (single isomer, unassigned) [Example 1-13-3-2]	< 100 nM
Cc1cnc(C(CCN(C)C)Nc2ccc3c(c2)Sc2cccc(-c4cc(N5CCOCC5)cc(=O)[nH]4)c2O3)cn1 (single isomer, unassigned)	< 100 nM

Ask | Value lookup for IC50; key = O=c1cc(N2CCOCC2)cc(-c2cccc3c2Oc2ccc(NCCN4CCOCC4)cc2C3)[nH]1
Reply | 500 to 2000 nM

Ask | Now the molecule O=c1cc(N2CCOCC2)cc(-c2cccc3c2Sc2ccc(NC4CN(Cc5cccnc5)C4)cc2S3)[nH]1
Reply | 100 to 500 nM

Ask | Next molecule up: COC[C@H](CN1CCOC(C)(C)C1)Nc1ccc2c(c1)Sc1cccc(-c3cc(N4CCOCC4)cc(=O)[nH]3)c1S2
Reply | < 100 nM

Ask | Would you kindly repeat that for N#Cc1cncc(CNc2ccc3c(c2)Cc2cccc(-c4cc(N5CCOCC5)cc(=O)[nH]4)c2O3)c1 ?
Reply | < 100 nM

Ask | Also, CCOc1ccnc(CN2CCC(Nc3ccc4c(c3)Cc3cccc(-c5cc(N6CCOCC6)cc(=O)[nH]5)c3O4)CC2)c1 please.
Reply | 100 to 500 nM

Ask | Another molecule to look at: COc1cncc(C(C)Nc2ccc3c(c2)Cc2cccc(-c4nc(N5CCOCC5)cc(=O)[nH]4)c2O3)c1 (stereo not drawn)
Reply | 100 to 500 nM

Ask | Now the molecule CCCC(Nc1ccc2c(c1)Sc1cccc(-c3cc(N4CCOCC4)cc(=O)[nH]3)c1S2)[C@H](C)N (stereo partly drawn)
Reply | 100 to 500 nM

Ask | Same question for Cc1cccc(C(C)Nc2ccc3c(c2)Cc2cccc(-c4cc(N5CCOCC5)cc(=O)[nH]4)c2O3)n1 (single isomer, unassigned) [Example 2-14-85-1] please.
Reply | 100 to 500 nM

Ask | # repeat for COc1ncc(C(C)Nc2ccc3c(c2)Cc2cccc(-c4cc(N5CCOCC5)cc(=O)[nH]4)c2O3)cn1 (stereo not drawn)
Reply | 100 to 500 nM

Ask | What would you report for COC[C@H](CN1[C@H](C)CCC[C@@H]1C)Nc1ccc2c(c1)Sc1cccc(-c3cc(N4CCOCC4)cc(=O)[nH]3)c1S2 ?
Reply | 100 to 500 nM

###

# MEASUREMENT_TARGET: ATM (Homo sapiens, UniProt Q13315)
# Construct: detecting phosphorylation of Chk2 in a human non-small cell lung cancer cell line NCI-H460 (ATCC company); host or cells: NCI-H460 human non-small cell lung cancer cells
# Sequence (Q13315 whole entry): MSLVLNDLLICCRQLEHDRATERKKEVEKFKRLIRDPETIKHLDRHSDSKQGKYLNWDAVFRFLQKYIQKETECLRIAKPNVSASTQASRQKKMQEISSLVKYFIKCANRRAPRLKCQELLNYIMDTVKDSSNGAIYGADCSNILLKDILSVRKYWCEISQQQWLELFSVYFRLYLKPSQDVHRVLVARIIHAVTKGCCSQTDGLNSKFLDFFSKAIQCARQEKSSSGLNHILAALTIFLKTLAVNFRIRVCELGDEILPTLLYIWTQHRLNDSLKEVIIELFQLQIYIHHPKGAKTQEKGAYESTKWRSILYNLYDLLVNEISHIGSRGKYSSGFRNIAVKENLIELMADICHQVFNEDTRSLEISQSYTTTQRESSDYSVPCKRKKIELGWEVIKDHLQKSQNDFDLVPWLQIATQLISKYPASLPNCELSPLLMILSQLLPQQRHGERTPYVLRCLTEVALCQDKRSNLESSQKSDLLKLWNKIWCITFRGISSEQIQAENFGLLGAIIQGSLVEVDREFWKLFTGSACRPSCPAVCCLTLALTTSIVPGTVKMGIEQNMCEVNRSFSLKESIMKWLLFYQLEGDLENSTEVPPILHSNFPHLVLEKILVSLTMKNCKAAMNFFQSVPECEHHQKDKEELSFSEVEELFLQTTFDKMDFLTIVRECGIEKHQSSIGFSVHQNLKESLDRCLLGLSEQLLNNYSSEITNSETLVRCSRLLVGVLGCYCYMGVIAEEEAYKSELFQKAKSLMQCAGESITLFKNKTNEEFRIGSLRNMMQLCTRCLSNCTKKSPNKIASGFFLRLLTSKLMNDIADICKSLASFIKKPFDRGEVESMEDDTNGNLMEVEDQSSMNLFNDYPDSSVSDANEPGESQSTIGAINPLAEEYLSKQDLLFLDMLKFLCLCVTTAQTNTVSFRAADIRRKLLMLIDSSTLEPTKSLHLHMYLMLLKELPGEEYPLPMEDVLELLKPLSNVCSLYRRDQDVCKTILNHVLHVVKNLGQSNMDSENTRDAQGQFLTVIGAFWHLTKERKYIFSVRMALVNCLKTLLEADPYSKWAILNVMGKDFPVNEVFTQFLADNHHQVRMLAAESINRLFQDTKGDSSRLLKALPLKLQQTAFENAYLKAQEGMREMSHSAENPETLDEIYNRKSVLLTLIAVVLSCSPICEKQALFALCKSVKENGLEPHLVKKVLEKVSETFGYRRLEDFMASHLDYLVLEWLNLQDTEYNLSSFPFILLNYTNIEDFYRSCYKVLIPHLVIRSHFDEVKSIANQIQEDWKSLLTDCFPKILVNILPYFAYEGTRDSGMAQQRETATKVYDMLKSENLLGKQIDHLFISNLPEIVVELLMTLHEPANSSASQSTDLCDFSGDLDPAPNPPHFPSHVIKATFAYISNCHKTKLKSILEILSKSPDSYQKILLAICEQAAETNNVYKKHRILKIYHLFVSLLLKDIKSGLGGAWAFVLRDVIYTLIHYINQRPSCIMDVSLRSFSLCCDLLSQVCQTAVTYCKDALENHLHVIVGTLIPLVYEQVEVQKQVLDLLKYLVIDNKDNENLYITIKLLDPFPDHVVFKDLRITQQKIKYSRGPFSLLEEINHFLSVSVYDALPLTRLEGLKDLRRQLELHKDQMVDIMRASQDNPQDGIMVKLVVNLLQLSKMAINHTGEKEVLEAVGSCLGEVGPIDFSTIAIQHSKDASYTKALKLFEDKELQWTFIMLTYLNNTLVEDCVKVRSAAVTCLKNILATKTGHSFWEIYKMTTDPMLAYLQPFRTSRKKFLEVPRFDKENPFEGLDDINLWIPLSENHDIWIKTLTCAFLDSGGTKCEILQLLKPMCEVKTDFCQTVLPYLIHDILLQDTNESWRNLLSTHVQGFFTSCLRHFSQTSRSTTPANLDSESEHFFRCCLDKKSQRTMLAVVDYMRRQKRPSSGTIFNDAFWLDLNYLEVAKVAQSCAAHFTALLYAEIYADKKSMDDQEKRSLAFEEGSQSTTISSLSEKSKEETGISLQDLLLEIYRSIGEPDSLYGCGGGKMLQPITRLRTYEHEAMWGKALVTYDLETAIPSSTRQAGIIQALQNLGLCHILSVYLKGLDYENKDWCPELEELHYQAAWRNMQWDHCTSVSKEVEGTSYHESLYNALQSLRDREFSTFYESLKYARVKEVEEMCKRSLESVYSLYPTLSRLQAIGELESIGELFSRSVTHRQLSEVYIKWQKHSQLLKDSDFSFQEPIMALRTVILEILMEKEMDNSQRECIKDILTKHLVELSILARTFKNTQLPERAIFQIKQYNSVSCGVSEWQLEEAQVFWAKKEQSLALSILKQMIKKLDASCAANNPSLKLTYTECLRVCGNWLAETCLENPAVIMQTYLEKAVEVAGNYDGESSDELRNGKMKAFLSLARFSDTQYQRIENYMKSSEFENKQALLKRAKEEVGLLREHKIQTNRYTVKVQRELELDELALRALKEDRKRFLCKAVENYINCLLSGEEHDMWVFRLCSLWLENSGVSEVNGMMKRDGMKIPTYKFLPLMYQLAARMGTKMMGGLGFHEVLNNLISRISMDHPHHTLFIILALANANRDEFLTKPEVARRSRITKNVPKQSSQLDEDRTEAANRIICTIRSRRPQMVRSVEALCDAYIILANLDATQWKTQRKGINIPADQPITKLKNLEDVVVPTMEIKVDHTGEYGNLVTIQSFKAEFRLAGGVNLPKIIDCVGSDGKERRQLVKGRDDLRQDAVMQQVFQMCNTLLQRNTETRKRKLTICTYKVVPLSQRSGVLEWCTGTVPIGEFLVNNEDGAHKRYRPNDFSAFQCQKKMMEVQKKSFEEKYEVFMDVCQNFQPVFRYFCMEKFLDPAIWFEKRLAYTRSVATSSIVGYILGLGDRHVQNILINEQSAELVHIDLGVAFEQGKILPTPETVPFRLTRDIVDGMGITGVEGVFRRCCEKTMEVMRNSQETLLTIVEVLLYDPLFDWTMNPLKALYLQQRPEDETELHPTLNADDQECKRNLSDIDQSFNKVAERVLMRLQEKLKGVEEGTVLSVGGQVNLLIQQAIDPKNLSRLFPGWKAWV
# EXPERIMENTAL_DETAILS: ATM inhibition test (phosphorylation of Chk2 generated by ionizing radiation, AlphaScreen SureFire)
# Type: cell-based
# TEST_CONDITIONS: phosphorylated Chk2 in NCI-H460 cells, ionizing radiation 8Gy, 1 hour after test compound treatment; read-out: ATM inhibitory activity
pIC50: −log10 of the molar value.
pIC50 values, listed per item

MOLECULE	pIC50
CCOC(=O)C(C)Nc1ccc2c(c1)Cc1cccc(-c3cc(N4CCOCC4)cc(=O)[nH]3)c1O2 (centres unmarked)	6.30 to 7.00

Ask | Endpoint output: pIC50 of CC(Nc1ccc2c(c1)Cc1cccc(-c3cc(N4CCOCC4)cc(=O)[nH]3)c1O2)c1cc(Cl)ccn1 (single isomer, unassigned) [Example 2-14-89-1] . Value?
Reply | 6.30 to 7.00

Ask | Same again, this time with Cc1cnc(C(CF)Nc2ccc3c(c2)Cc2cccc(-c4cc(N5CCOCC5)cc(=O)[nH]4)c2O3)nc1 (centres unmarked)
Reply | 6.30 to 7.00

Ask | Repeat with O=c1cc(N2CCOCC2)cc(-c2cccc3c2Sc2ccc(NCc4cccnc4)cc2S3)[nH]1
Reply | 6.30 to 7.00

Ask | Similarly, CC(Nc1ccc2c(c1)Cc1cccc(-c3cc(N4CCOCC4)cc(=O)[nH]3)c1O2)c1ncc(CO)cn1 (centres unmarked) ?
Reply | 5.70 to 6.30

###

Entries and their measured IC50 follow.
# MEASUREMENT_TARGET: ATM (Homo sapiens)
# Construct: detecting phosphorylation of Chk2 in a human non-small cell lung cancer cell line NCI-H460 (ATCC company); host or cells: NCI-H460 human non-small cell lung cancer cells
# EXPERIMENTAL_DETAILS: ATM inhibition test (phosphorylation of Chk2 generated by ionizing radiation, AlphaScreen SureFire)
# Format: cell-based
# TEST_CONDITIONS: phosphorylated Chk2 in NCI-H460 cells, ionizing radiation 8Gy, 1 hour after test compound treatment; read-out: ATM inhibitory activity

# example entries with known answers
COMPOUND	IC50
CNc1ccc(CNc2ccc3c(c2)Cc2cccc(-c4cc(N5CCOCC5)cc(=O)[nH]4)c2O3)cn1	100 to 500 nM
COc1cc(CNc2ccc3c(c2)Sc2cccc(-c4cc(N5CCOCC5)cc(=O)[nH]4)c2O3)ccn1	100 to 500 nM
CC(Nc1ccc2c(c1)Sc1cccc(-c3cc(N4CCOCC4)cc(=O)[nH]3)c1S2)c1nccc(CO)n1 (stereo not shown)	100 to 500 nM
O=c1cc(N2CCOCC2)cc(-c2cccc3c2Oc2ccc(NCc4cnccn4)cc2C3)[nH]1	100 to 500 nM
COc1ncc(CNc2ccc3c(c2)Sc2cccc(-c4cc(N5CCOCC5)cc(=O)[nH]4)c2O3)cc1F	< 100 nM
Cc1ccc(C(Nc2ccc3c(c2)Sc2cccc(-c4cc(N5CCOCC5)cc(=O)[nH]4)c2S3)C2CCN(C)CC2)nc1 (single isomer, unassigned) [Example 1-51-2]	< 100 nM

Ask | // IC50 lookup, key: CC(CN1CC(F)(F)C1)Nc1ccc2c(c1)Sc1cccc(-c3cc(N4CCOCC4)cc(=O)[nH]3)c1S2 (stereo not shown)
Reply | 100 to 500 nM

###

# pIC50 per record follows
# MEASUREMENT_TARGET: ATM (Homo sapiens, UniProt Q13315)
# Construct: detecting phosphorylation of Chk2 in a human non-small cell lung cancer cell line NCI-H460 (ATCC company); host or cells: NCI-H460 human non-small cell lung cancer cells
# EXPERIMENTAL_DETAILS: ATM inhibition test (phosphorylation of Chk2 generated by ionizing radiation, AlphaScreen SureFire)
# Type: cell-based
# TEST_CONDITIONS: phosphorylated Chk2 in NCI-H460 cells, ionizing radiation 8Gy, 1 hour after test compound treatment; read-out: ATM inhibitory activity
pIC50: −log10 of the molar value.

MOLECULE	pIC50
Cc1cnc(C(C)Nc2ccc3c(c2)Cc2cccc(-c4cc(N5CCOCC5)cc(=O)[nH]4)c2O3)nc1 (centres unmarked)	> 7.00
Cc1ccnc(CNc2ccc3c(c2)Cc2ccnc(-c4cc(N5CCOCC5)cc(=O)[nH]4)c2O3)c1	6.30 to 7.00
CC(Nc1ccc2c(c1)Cc1cccc(-c3cc(N4CCOCC4)cc(=O)[nH]3)c1O2)c1ncccn1 (centres unmarked)	6.30 to 7.00

Ask | For the record O=c1cc(N2CCOCC2)cc(-c2cccc3c2Sc2ccc(NCCN4CCOCC4)cc2S3)[nH]1 , what value of pIC50 is listed for ATM (Homo sapiens, UniProt Q13315)?
Reply | > 7.00

Ask | Next entry: CC(CN1CCN(c2ccccc2)CC1)Nc1ccc2c(c1)Sc1cccc(-c3cc(N4CCOCC4)cc(=O)[nH]3)c1S2 (centres unmarked)
Reply | > 7.00

Ask | Note, next up: COc1cncc(CNc2ccc3c(c2)Sc2cccc(-c4cc(N5CCOCC5)cc(=O)[nH]4)c2O3)c1
Reply | > 7.00

###

Below, each of the molecules is paired with its reported IC50 value.
# MEASUREMENT_TARGET: ATM (Homo sapiens, UniProt Q13315)
# Construct: detecting phosphorylation of Chk2 in a human non-small cell lung cancer cell line NCI-H460 (ATCC company); host or cells: NCI-H460 human non-small cell lung cancer cells
# EXPERIMENTAL_DETAILS: ATM inhibition test (phosphorylation of Chk2 generated by ionizing radiation, AlphaScreen SureFire)
# Format: cell-based
# TEST_CONDITIONS: phosphorylated Chk2 in NCI-H460 cells, ionizing radiation 8Gy, 1 hour after test compound treatment; read-out: ATM inhibitory activity
# Method: ATM inhibitory effects of a test compound were measured by detecting phosphorylation of Chk2 in a human non-small cell lung cancer cell line NCI-H460 (ATCC company). The level of phosphorylated Chk2 generated by an ionizing radiation was measured using AlphaScreen SureFire (TGR Biosciences). The cells were seeded by 40000 cells per well in 96-well CellBIND® plates (Corning International Inc.), and incubated at 37° C. overnight in 5% CO2. […]

Illustrative cases are given below, each with its answer.
MOLECULE	IC50
Cc1ccc(CNc2ccc3c(c2)Cc2cccc(-c4cc(N5CCOCC5)cc(=O)[nH]4)c2O3)cn1	< 100 nM
Cc1ccc(C(Nc2ccc3c(c2)Sc2cccc(-c4cc(N5CCOCC5)cc(=O)[nH]4)c2S3)C2CCN(C)C2)nc1 (single isomer, unassigned)	< 100 nM
Cn1cc(-c2ccnc(CNc3ccc4c(c3)Cc3cccc(-c5cc(N6CCOCC6)cc(=O)[nH]5)c3O4)c2)cn1	< 100 nM

Ask | Please report the recorded IC50 for CN(C)CCNc1ccc2c(c1)Sc1cccc(-c3cc(N4CCOCC4)cc(=O)[nH]3)c1S2 .
Reply | 100 to 500 nM

Ask | And then Cc1cccc(C(CO)Nc2ccc3c(c2)Sc2cccc(-c4cc(N5CCOCC5)cc(=O)[nH]4)c2S3)n1 (single isomer, unassigned) [Example 1-12-140-1] , what is it?
Reply | 100 to 500 nM

Ask | Please do the same for COc1cc(CNc2ccc3c(c2)Cc2cccc(-c4cc(N5CCOCC5)cc(=O)[nH]4)c2O3)ccn1 as well.
Reply | 100 to 500 nM

Ask | Would you kindly repeat that for COc1ccnc(CNc2ccc3c(c2)Cc2ccnc(-c4cc(N5CCOCC5)cc(=O)[nH]4)c2O3)c1 ?
Reply | < 100 nM
